target: T1, glucagon receptor (target of the KD / T½ of Tables 1A, 1B and 2B) (Homo sapiens (Human), UniProt P47871 26-136); experiment: not stated; 37° C.
T1 construct: not shown: Human Fc carrier (and any linker) of the ECD-Fc fusion
T1 sequence (P47871 26-136 limits assumed): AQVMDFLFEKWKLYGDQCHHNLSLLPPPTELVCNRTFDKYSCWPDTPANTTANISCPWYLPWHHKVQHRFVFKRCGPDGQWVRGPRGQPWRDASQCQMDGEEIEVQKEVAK
readout-kind: T½ (h)
Please respond with the number in h and leave the unit unwritten.

Before answering, review these 2 worked examples.
binder="H2-C8-H3-2 (antibody, V domains shown) VH: QVQLVQSGAEVKKPGASVKVSCKASGYTFTDFSVHWVRQAPGQGLEWMGWINTETRGTSYADDFKGRVTMTRDTSTSTVYMELSSLRSEDTAVYYCVKSLFWSYGPPDYWGQGTTVTVSS VL: DIQMTQSPSSLSASVGDRVTITCRASQNIRTAVVWYQQKPGKAPKLLIYLATNRHSGVPSRFSGSGSGTDFTFTISSLQPEDIATYYCLQHWTYPFSFGGGTKLEIK" recorded_measurement=6.89
binder="H2-A11-H3-4 (antibody, V domains shown) VH: QVQLVQSGAEVKKPGASVKVSCKASGYTFTDFSVHWVRQAPGQGLEWMGWINTEYDFTSYADDFKGRVTMTRDTSTSTVYMELSSLRSEDTAVYYCVKSRWWSYGPPDYWGQGTTVTVSS VL: DIQMTQSPSSLSASVGDRVTITCRASQNIRTAVVWYQQKPGKAPKLLIYLATNRHSGVPSRFSGSGSGTDFTFTISSLQPEDIATYYCLQHWTYPFSFGGGTKLEIK" recorded_measurement=6.36

(Q) Data request, read-out T½, for H2-C8-H3-3 (antibody, V domains shown) VH: QVQLVQSGAEVKKPGASVKVSCKASGYTFTDFSVHWVRQAPGQGLEWMGWINTETRGTSYADDFKGRVTMTRDTSTSTVYMELSSLRSEDTAVYYCVKSLYWSYGPPDYWGQGTTVTVSS VL: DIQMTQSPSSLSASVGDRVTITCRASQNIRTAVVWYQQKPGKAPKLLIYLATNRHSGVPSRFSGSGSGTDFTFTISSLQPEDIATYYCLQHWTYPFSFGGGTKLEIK
(A) 12.4
